biological target: GCase (Homo sapiens, UniProt P04062); construct: endogenous in cells; host or cells: HeLa cells; assay: live cell PFB assay in HELA cells for activation of GCase; format: cell-based
pEC50: −log10 of the molar value.
quantity-name: pEC50

{"molecule": "FC(F)Cn1ncc2ncc(-n3cc4c(n3)CCN(c3ncccc3C(F)(F)F)C4)nc21", "pEC50": "> 5.00"}
{"molecule": "FC(F)Cn1ncc2ncc(NC3C[C@@H]4CN(c5ncccc5C(F)(F)F)C[C@@H]4C3)nc21 (stereo partly shown)", "pEC50": "< 4.00"}
{"molecule": "FC(F)Cn1ncc2ncc(N[C@@H]3C[C@@H]4CN(c5ccc(C(F)(F)F)nc5)C[C@@H]4C3)nc21", "pEC50": "> 5.00"}
{"molecule": "FC(F)Cn1ncc2ncc(N3C[C@H]4CCN(c5cnccc5C(F)(F)F)C[C@H]4C3)nc21 (racemic)", "pEC50": "4.30 to 5.00"}
{"molecule": "FC(F)Cn1ncc2ncc(N[C@H]3C[C@@H]4CN(c5cncnc5C(F)(F)F)C[C@@H]4C3)nc21", "pEC50": "> 5.00"}
{"molecule": "FC(F)Cn1ncc2ncc(N3C[C@@H]4CCN(c5cccc(C(F)(F)F)n5)[C@@H]4C3)nc21 (racemic)", "pEC50": "4.30 to 5.00"}

Task: Please look up its pEC50: FC(F)Cn1ncc2ncc(N[C@H]3C[C@@H]4CN(c5nnccc5C(F)(F)F)C[C@@H]4C3)nc21
Output: < 4.00

* * *

molecular target: GCase (Homo sapiens, UniProt P04062); construct: endogenous in cells; test: live cell PFB assay in HELA cells for activation of GCase
pEC50: −log10 of the molar value.
quantity-name: pEC50

{"compound": "FC(F)Cn1ncc2ncc(N[C@H]3C[C@@H]4CN(c5cccnc5C(F)(F)F)C[C@@H]4C3)nc21 [Compound 37]", "target": "GCase (Homo sapiens, UniProt P04062)", "pEC50": "> 5.00"}
{"compound": "O=C1CC2CN(c3cccc(C(F)(F)F)n3)CC2CN1c1cnc2cnn(CC(F)F)c2n1 (stereo not shown) [Compound 66]", "target": "GCase (Homo sapiens, UniProt P04062)", "pEC50": "4.30 to 5.00"}
{"compound": "FC(F)Cn1ncc2ncc(N3CC4CC(Oc5cccc(C(F)(F)F)n5)CC4C3)nc21 (stereo not shown) [Compound 29]", "target": "GCase (Homo sapiens, UniProt P04062)", "pEC50": "> 5.00"}

Read the next record carefully.
Task: Please look up its pEC50: FC(F)Cn1ncc2ncc(N[C@H]3C[C@@H]4CN(c5cncc(C(F)(F)F)c5)C[C@@H]4C3)nc21 [Compound 53]
Output: > 5.00

* * *

Item-by-item account of EC50
molecular target: GCase (Homo sapiens, UniProt P04062); construct: endogenous in cells; test: live cell PFB assay in HELA cells for activation of GCase

Please review the entries below; each comes with its answer.
{"compound": "FC(F)Cn1ncc2ncc(N[C@H]3C[C@@H]4CN(c5ccc(C(F)(F)F)nc5)C[C@@H]4C3)nc21", "target": "GCase (Homo sapiens, UniProt P04062)", "observed": "10 to 50 µM"}
{"compound": "FC(F)Cn1ncc2ncc(N3CC[C@@H]4CN(c5cnccc5C(F)(F)F)C[C@@H]4C3)nc21 (racemic)", "target": "GCase (Homo sapiens, UniProt P04062)", "observed": "10 to 50 µM"}
{"compound": "FC(F)Cn1ncc2ncc(N3CC[C@H]4CN(c5cc(C(F)(F)F)ccn5)C[C@H]43)nc21 (racemic)", "target": "GCase (Homo sapiens, UniProt P04062)", "observed": "10 to 50 µM"}
{"compound": "O=C(c1ccc2cc[nH]c2c1)N1CCN2C[C@H](Oc3cccnc3C(F)(F)F)C[C@H]2C1", "target": "GCase (Homo sapiens, UniProt P04062)", "observed": "10 to 50 µM"}
{"compound": "FC(F)Cn1ncc2ncc(N3C[C@H]4CN(c5ccc(C(F)(F)F)nc5)C[C@H]4C3)nc21", "target": "GCase (Homo sapiens, UniProt P04062)", "observed": "10 to 50 µM"}

Task: Please look up its EC50: COc1cncc(N2C[C@H]3C[C@H](Nc4cnc5cnn(CC(F)F)c5n4)C[C@H]3C2)n1
Output: 10 to 50 µM

Task: Please look up its EC50: FC(F)Cn1ncc2ncc(N3CC[C@@H]4CN(c5ccc(C(F)(F)F)cn5)C[C@@H]4C3)nc21 (racemic)
Output: < 10 µM

* * *

target: GCase (Homo sapiens, UniProt P04062); construct: endogenous in cells; assay: live cell PFB assay in HELA cells for activation of GCase
Item-by-item account of EC50

{"molecule": "FC(F)Cn1ncc2ncc(N3CC[C@@H]4CN(c5cccnc5C(F)(F)F)C[C@@H]4C3)nc21 (racemic)", "EC50": "< 10 µM"}
{"molecule": "FC(F)Cn1ncc2ncc(N3C[C@@H]4CN(c5cccnc5C(F)(F)F)C[C@H]4C3)nc21 (racemic)", "EC50": "< 10 µM"}
{"molecule": "FC(F)Cn1ncc2ncc(N3C[C@H]4CN(c5cc(C(F)(F)F)ccn5)C[C@H]4C3)nc21", "EC50": "< 10 µM"}
{"molecule": "FC(F)Cn1ncc2ncc(N3CC[C@@H]4CN(c5cc(C(F)(F)F)ccn5)C[C@@H]4C3)nc21 (racemic)", "EC50": "< 10 µM"}
{"molecule": "FC(F)Cn1ncc2ncc(N3C[C@H]4CN(c5cccc(C(F)(F)F)n5)C[C@H]4C3)nc21", "EC50": "> 100 µM"}
{"molecule": "FC(F)Cn1ncc2ncc(N3CC[C@@H]4CN(c5cncc(C(F)(F)F)c5)C[C@@H]4C3)nc21 (racemic)", "EC50": "10 to 50 µM"}

Task: Please look up its EC50: FC(F)Cn1ncc2ncc(-n3ncc4c3CCN(c3ncccc3C(F)(F)F)C4)nc21
Output: 10 to 50 µM

Task: Please look up its EC50: FC(F)Cn1ncc2ncc(N[C@H]3C[C@@H]4CN(c5cnc(C(F)(F)F)nc5)C[C@@H]4C3)nc21
Output: < 10 µM

Task: Please look up its EC50: FC(F)Cn1ncc2ncc(N[C@H]3C[C@@H]4CN(c5nccnc5C(F)(F)F)C[C@@H]4C3)nc21
Output: < 10 µM

Task: Please look up its EC50: FC(F)Cn1ncc2ncc(N3CC[C@@H]4CN(c5ncccc5C(F)(F)F)C[C@@H]4C3)nc21 (racemic)
Output: < 10 µM

Task: Please look up its EC50: FC(F)Cn1ncc2ncc(N3CC4CC(Oc5cccnc5C(F)(F)F)CC4C3)nc21 (stereo not drawn)
Output: > 100 µM

Task: Please look up its EC50: O=C(c1ccc2ccn(CC3COC3)c2c1)N1CC[C@@H]2CN(c3cc(C(F)(F)F)ccn3)C[C@@H]2C1 (racemic)
Output: 10 to 50 µM

Task: Please look up its EC50: FC(F)Cn1ncc2ncc(N[C@@H]3C[C@@H]4CN(c5cccc(C(F)(F)F)n5)C[C@@H]4C3)nc21
Output: < 10 µM

Task: Please look up its EC50: FC(F)Cn1ncc2ncc(N[C@H]3C[C@@H]4CN(c5ccc(C(F)(F)F)nn5)C[C@@H]4C3)nc21
Output: 10 to 50 µM

* * *

Item-by-item account of pEC50
Molecular target: GCase (Homo sapiens, UniProt P04062)
Construct: endogenous in cells
Sequence (P04062 40-536): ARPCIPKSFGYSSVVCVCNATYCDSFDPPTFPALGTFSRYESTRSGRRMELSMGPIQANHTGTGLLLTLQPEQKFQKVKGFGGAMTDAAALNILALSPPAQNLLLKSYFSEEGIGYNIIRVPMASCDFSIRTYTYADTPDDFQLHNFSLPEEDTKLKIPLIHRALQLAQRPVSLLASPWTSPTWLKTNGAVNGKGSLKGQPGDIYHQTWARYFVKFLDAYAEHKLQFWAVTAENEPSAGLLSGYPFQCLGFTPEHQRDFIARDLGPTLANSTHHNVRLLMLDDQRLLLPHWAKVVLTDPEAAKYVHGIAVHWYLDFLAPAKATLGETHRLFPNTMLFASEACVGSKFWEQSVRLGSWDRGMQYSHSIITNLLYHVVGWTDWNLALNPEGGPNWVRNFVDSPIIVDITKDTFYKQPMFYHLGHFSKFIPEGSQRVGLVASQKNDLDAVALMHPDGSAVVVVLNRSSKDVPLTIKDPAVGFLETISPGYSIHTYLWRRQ
Experiment: live cell PFB assay in HELA cells for activation of GCase
pEC50: −log10 of the molar value.

Please review the entries below; each comes with its answer.
{"compound": "FC(F)Cn1ncc2ncc(N[C@@H]3CC[C@@H]4CN(c5cc(C(F)(F)F)ccn5)C[C@@H]4C3)nc21 (single isomer, unassigned) [Compound 73]", "target": "GCase (Homo sapiens, UniProt P04062)", "pEC50": "4.30 to 5.00"}
{"compound": "FC(F)Cn1ncc2ncc(N3C[C@H]4CCN(c5cccc(C(F)(F)F)n5)C[C@H]4C3)nc21 (racemic) [Compound 6]", "target": "GCase (Homo sapiens, UniProt P04062)", "pEC50": "> 5.00"}
{"compound": "FC(F)(F)c1ccnc(N2C[C@H]3CCN(c4cnc5cnn(C6COC6)c5n4)C[C@H]3C2)c1 (racemic) [Compound 1]", "target": "GCase (Homo sapiens, UniProt P04062)", "pEC50": "> 5.00"}

Task: Please look up its pEC50: FC(F)Cn1ncc2ncc(N3C[C@@H]4CN(c5cc(C(F)(F)F)ccn5)C[C@H]4C3)nc21 (racemic) [Compound 44]
Output: < 4.00

Task: Please look up its pEC50: Cn1c(-c2ccccc2)c(C(=O)N2CCN3C[C@H](Oc4cccnc4C(F)(F)F)C[C@H]3C2)c2nccnc21 [Compound 27]
Output: 4.00 to 4.30

Task: Please look up its pEC50: O=C1C2CN(c3cnc4cnn(CC(F)F)c4n3)CCC2CN1c1cccc(C(F)(F)F)n1 (stereo not shown) [Compound 65]
Output: > 5.00

Task: Please look up its pEC50: FC(F)Cn1ncc2ncc(N[C@H]3C[C@@H]4CN(c5ncc(C(F)(F)F)cn5)C[C@@H]4C3)nc21 [Compound 86]
Output: 4.30 to 5.00
